Would you mind telling me the reported pIC50 of each entry?
Target: IL-17A/F (Homo sapiens, UniProt Q16552+Q96PD4)
Sequence (Q16552 24-155): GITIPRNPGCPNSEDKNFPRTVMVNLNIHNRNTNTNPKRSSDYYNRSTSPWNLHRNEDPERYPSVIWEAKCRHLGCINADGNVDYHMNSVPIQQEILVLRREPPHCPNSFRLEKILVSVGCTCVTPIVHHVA
Sequence (Q96PD4 31-163): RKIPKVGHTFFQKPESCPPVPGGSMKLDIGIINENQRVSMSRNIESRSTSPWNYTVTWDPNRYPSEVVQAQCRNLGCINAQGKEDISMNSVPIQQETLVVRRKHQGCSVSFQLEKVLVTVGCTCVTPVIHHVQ
Assay: IL-17A/F HEK-Blue cell assay (SEAP reporter)
Conditions: HEK-Blue IL-17A reporter cells, IL17A/F 5 ng/mL, 20 hours, SEAP read at A630; read-out: HEK-Blue IL17AF (IC50 for IL-17A/F inhibition)
pIC50: −log10 of the molar value.

[
  {
    "compound": "CCn1nccc1C(=O)N[C@H](c1cn2nc(C[C@H]3C[C@@H](C(F)(F)F)CNC3=O)c([C@@H]3CCCCN3)nc2n1)C1CCC(F)(F)CC1 (single isomer, unassigned)",
    "val": "< 6.00"
  },
  {
    "compound": "CCn1nccc1C(=O)N[C@H](c1cn2nc(C[C@H]3C[C@@H](C(F)(F)F)CNC3=O)c(N3CCN(C)[C@H](C4CC4)C3)nc2n1)C1CCC(F)(F)CC1 (single isomer, unassigned)",
    "val": "6.00 to 7.00"
  }
]

Then there is this compound:
Kindly note: IL-17A/F (Homo sapiens, UniProt Q16552+Q96PD4), "CCn1nccc1C(=O)N[C@H](c1cn2nc(C[C@H]3C[C@@H](C(F)(F)F)CNC3=O)c(CC3CCOCC3)nc2n1)C1CCC(F)(F)CC1" , pIC50 value reported: > 7.00
